Target: Adenosine receptor A2a (Homo sapiens)
Experiment: Displacement of [3H]-ZM241385 from human adenosine A2A receptor expressed in HEK293 cell membranes at 0.1 uM after 90 mins relative to control
propertyMeasured: inhibition (%)

mol	targetDesc	inhibition [%]
CC#CCn1cc(-c2nc3c([nH]2)c(=O)n(CCC)c(=O)n3CCC)cn1	Adenosine receptor A2a (Homo sapiens)	60
CCCn1c(=O)c2[nH]c(-c3cnn(CC#Cc4ccc(OC(F)(F)F)cc4)c3)nc2n(CCC)c1=O	Adenosine receptor A2a (Homo sapiens)	51
CCCn1c(=O)c2[nH]c(-c3cnn(CC#Cc4cccc(OC(F)(F)F)c4)c3)nc2n(CC)c1=O	Adenosine receptor A2a (Homo sapiens)	37

1. C#CCn1cc(-c2nc3c([nH]2)c(=O)n(CCC)c(=O)n3CCC)cn1
2. CCCn1c(=O)[nH]c2nc(-c3cnn(CC#Cc4cccc(OC(F)(F)F)c4)c3)[nH]c2c1=O
Q: Between 1 and 2 , which one shows the smaller inhibition number? Field: selected label. Fill in the label of the entry you choose.
Ans: 2

====

Target: Adenosine receptor A2b (Homo sapiens, UniProt P29275)
Sequence (P29275 whole entry): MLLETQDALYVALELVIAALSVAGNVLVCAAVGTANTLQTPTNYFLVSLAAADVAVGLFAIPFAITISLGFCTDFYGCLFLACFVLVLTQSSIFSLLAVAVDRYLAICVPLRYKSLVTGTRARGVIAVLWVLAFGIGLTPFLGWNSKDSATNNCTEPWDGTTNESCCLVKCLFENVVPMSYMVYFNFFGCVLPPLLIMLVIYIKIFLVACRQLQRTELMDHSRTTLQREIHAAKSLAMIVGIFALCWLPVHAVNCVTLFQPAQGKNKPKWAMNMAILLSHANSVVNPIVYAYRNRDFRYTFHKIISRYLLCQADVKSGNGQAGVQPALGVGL
Assay: Displacement of [3H]-MRS-1754 from human adenosine A2B receptor expressed in HEK293 cell membranes after 90 mins
Conditions: read-out: Ki
propertyMeasured: Ki (nM)

mol	targetDesc	readoutUnit	Ki
CCCn1c(=O)c2[nH]c(-c3cnn(CC#Cc4cccc(F)c4)c3)nc2n(CCC)c1=O	Adenosine receptor A2b (Homo sapiens, UniProt P29275)	nM	6.7
CCCn1c(=O)c2[nH]c(-c3cnn(CC#Cc4ccc(OC(F)(F)F)cc4)c3)nc2n(CC)c1=O	Adenosine receptor A2b (Homo sapiens, UniProt P29275)	nM	9.9
CCCn1c(=O)c2[nH]c(-c3cnn(CC#Cc4ccc(C)cc4)c3)nc2n(CCC)c1=O	Adenosine receptor A2b (Homo sapiens, UniProt P29275)	nM	6.5
CCCn1c(=O)c2[nH]c(-c3cnn(CC#Cc4ccc(F)cc4)c3)nc2n(CC)c1=O	Adenosine receptor A2b (Homo sapiens, UniProt P29275)	nM	7.3
CCCn1c(=O)c2[nH]c(-c3cnn(CC#Cc4ccccc4C(=O)OC)c3)nc2n(CCC)c1=O	Adenosine receptor A2b (Homo sapiens, UniProt P29275)	nM	12

1. CCCn1c(=O)c2[nH]c(-c3cnn(CC#Cc4ccc(F)cc4)c3)nc2n(CCC)c1=O
2. CCCn1c(=O)c2[nH]c(-c3cnn(CC#CCN4CCN(c5cccc(C(F)(F)F)c5)CC4)c3)nc2n(CCC)c1=O
Q: For the two items 1 and 2 , which reports the higher Ki value? Field: selected label. Fill in the label of the entry you choose.
Ans: 2
(2: 12 nM, 1: 5.9 nM)

====

Target: Adenosine receptor A2a (Homo sapiens)
Assay: Displacement of [3H]-ZM241385 from human adenosine A2A receptor expressed in HEK293 cell membranes at 0.1 uM after 90 mins relative to control
propertyMeasured: inhibition (%)

Example entries begin here.
mol	readoutUnit	inhibition
CCCn1c(=O)c2[nH]c(-c3cnn(CC#Cc4ccc(F)cc4)c3)nc2n(CCC)c1=O	%	66
CCCn1c(=O)c2[nH]c(-c3cnn(CC#CCN4CCCCC4)c3)nc2n(CCC)c1=O	%	74
CCCn1c(=O)[nH]c2nc(-c3cnn(CC#Cc4ccc(OC(F)(F)F)cc4)c3)[nH]c2c1=O	%	46
CCCn1c(=O)c2[nH]c(-c3cnn(CC#Cc4cccc(C(=O)O)c4)c3)nc2n(CCC)c1=O	%	32
CCCn1c(=O)c2[nH]c(-c3cnn(CC#Cc4cccc(F)c4)c3)nc2n(CCC)c1=O	%	64
CCCn1c(=O)c2[nH]c(-c3cnn(CC#Cc4ccc(F)cc4)c3)nc2n(CC)c1=O	%	56

I. CCCn1c(=O)c2[nH]c(-c3cnn(CC#Cc4cccc(C(F)(F)F)c4)c3)nc2n(CCC)c1=O
II. CCCn1c(=O)c2[nH]c(-c3cnn(CC#Cc4ccccc4C(=O)OC)c3)nc2n(CCC)c1=O
Q: For the two items I and II , which reports the higher inhibition value? Field: selected label. Fill in the label of the entry you choose.
Ans: I

1. CCCn1c(=O)c2[nH]c(-c3cnn(CC#Cc4cccc(C)c4)c3)nc2n(CCC)c1=O
2. CCCn1c(=O)c2[nH]c(-c3cnn(CC#Cc4ccc(C(F)(F)F)cc4)c3)nc2n(CCC)c1=O
Q: For the two items 1 and 2 , which reports the higher inhibition value? Field: selected label. Fill in the label of the entry you choose.
Ans: 1

Value source: ChEMBL document CHEMBL4020725
